The following molecules are listed with their measured GI50 values.
Test system: SK-OV-3 ovarian
assay.procedure: NCI tumour cell line growth inhibition, 48 h

As a guide, the following entries are already answered.
molecule	value.reported
CCc1nc2cc(/C=C/C(=O)NO)ccc2c(=O)n1CCc1ccc(F)cc1	1930 nM
CN1CCN(Cc2ccc(NC(=O)c3cncc(C#Cc4cnn5ccccc45)c3)cc2C(F)(F)F)CC1	1510 nM
CCCCCCN(C)Cc1ccc(OCCOc2ccc(CN(C)CCCCCC)cc2)cc1	1640 nM

What the record says about COc1ccc(/C=C2\CC(C)CC3C2=NN(c2ccccc2)C3c2ccc(OC)c(OC)c2)cc1OC (stereo not drawn) : GI50 is 9290 nM

What the record says about Cc1cc(NNC(=O)c2ccccc2O)nc(Nc2nc3ccccc3o2)n1 : GI50 is 633 nM

What the record says about CC(=O)C1CCC2C3CC=C4CC(SC(=N)N)CCC4(C)C3CCC12C (stereo not drawn) : GI50 is 4190 nM

What the record says about O=C(O)Cn1c2c(c3c(O)cccc31)C(=O)c1ccccc1-2 : GI50 is > 100000 nM

---

Tested on: EKVX NSCLC
assay.procedure: NCI tumour cell line growth inhibition, 48 h
The following compounds are listed with their measured GI50 values.

As a guide, the following entries are already answered.
compound	assay.system	metric.name	value.reported
COC(=O)C1=C(O)[C@H](C(=O)OC)[C@]2(O)[C@@H](C(=O)OC)[C@H]1C[C@@H](c1ccc(OC(=O)/C=C/c3ccco3)cc1)[C@@H]2C(=O)OC	EKVX NSCLC	GI50	21.9 µM
CCCN1C(=O)/C(=C/c2ccc(O)cc2)SC1=Nc1ccc(OC)cc1	EKVX NSCLC	GI50	12.3 µM
CO[C@@H]1[C@H]2[C@@H](C)c3ccoc3C[C@@H]2[C@@]2(C)CC[C@H](OC(=O)c3ccccc3)[C@](C)(C(=O)O)[C@]2(O)[C@@H]1OC(=O)c1ccccc1	EKVX NSCLC	GI50	11.1 µM
COc1ccc(/C=C2\CC(C)CC3C2=NN(c2ccccc2)C3c2ccc(OC)c(OC)c2)cc1OC (stereo not given)	EKVX NSCLC	GI50	5.61 µM
Cc1cc(NNC(=O)c2ccccc2O)nc(Nc2nc3ccccc3o2)n1	EKVX NSCLC	GI50	2.81 µM

What the record says about CC[C@]12C=CCN3CC[C@@]4(c5ccc(OC)cc5N(C)[C@H]4[C@@](O)(C(=O)OC)[C@@H]1OC(=O)CCC(=O)N[C@H](Cc1c[nH]c4ccccc14)C(=O)OC)[C@@H]32 : GI50 is 10.7 µM

What the record says about O=C(Cn1c(C(=O)c2ccccc2)nc2ccccc21)c1ccc(F)cc1 : GI50 is 21.1 µM

What the record says about C/C=C(/C)C(=O)OC1C=C(CO)C(=O)C(OC(=O)C(C)(O)C(C)Cl)C1C(C)C (stereo not given) : GI50 is 2.19 µM

What the record says about CCC[CH2][Sn]([CH2]CCC)([O]C(=O)c1cc(F)cc(F)c1)[O][Sn]([CH2]CCC)([CH2]CCC)[O]C(=O)c1cc(F)cc(F)c1 : GI50 is 1.31 µM

What the record says about CSc1ccc(C2=NN(C(C)=O)C(c3ccc(F)cc3)C2)cc1 (stereo not given) : GI50 is 21.6 µM

---

Test system: OVCAR-8 ovarian
assay.procedure: NCI tumour cell line growth inhibition, 48 h
The following compounds are listed with their measured TGI values.

As a guide, the following entries are already answered.
> print(dat)
                                   compound     assay.system  value.reported
1   NC(=Nc1nc(-c2ccccn2)cc2ccccc12)c1ccccn1  OVCAR-8 ovarian         15.5 µM
2  CC1=C2[C@H](c3ccccc3)C3C=CC2(c2ccccc23)N(C(=O)C(c2ccccc2)c2ccccc2)C1=O (stereo not given in full)  OVCAR-8 ovarian        > 100 µM
3    Oc1cc(CN2COc3ccccc32)c(O)cc1CNC1CCCCC1  OVCAR-8 ovarian         57.5 µM
4                       CC(C)CN(CC#N)CC(C)C  OVCAR-8 ovarian        > 100 µM

Reported TGI (OVCAR-8 ovarian) for entry CN(O)C(=S)c1ccccc1 is 33.2 µM

Reported TGI (OVCAR-8 ovarian) for entry COc1cc(C23OCC(Cc4cc5c(cc42)OCO5)C3CO)cc(OC)c1OC (stereo not given) is > 100 µM

Reported TGI (OVCAR-8 ovarian) for entry COc1cc2ncn(-c3cc(OCc4ccccc4C(F)(F)F)c(C(C)=O)s3)c2cc1OC is > 25 µM

Reported TGI (OVCAR-8 ovarian) for entry O=C(CN(c1ccc(S(=O)(=O)O)cc1)c1ccc(S(=O)(=O)O)cc1)Nn1cnc2ccc(S(=O)(=O)N(c3ccc(S(=O)(=O)O)cc3)c3ccc(S(=O)(=O)O)cc3)cc2c1=O is > 100 µM

Reported TGI (OVCAR-8 ovarian) for entry COc1ccc(/C=c2/sc3n(c2=O)NC(c2ccc(Cl)cc2)NN=3)cc1 (stereo not given) is > 100 µM

Reported TGI (OVCAR-8 ovarian) for entry Cc1ccc(-c2cc(-c3c(C)nn(C)c(=O)c3N)[nH]n2)cc1 is > 100 µM
